All values here come from PubChem BioAssay (NCI).

# Measurement Notes: NCI Yeast Anticancer Drug Screen. Data for the mlh1 strain (AID 171);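 further: 0% = growth of vehicle-treated control cultures of the same strain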
# Condition: S. cerevisiae mlh1 strain growth inhibition; at 33.0 µM; active compounds read high
This is part of a sample that, as a whole, favours compounds with a hit. Of some 79,000 tested, about 15% had one in any assay. Active and inactive are the calls of the source. No stated cut-off is given here; in the data, active means growth inhibition above about 70%; inactive means the rest.
Recorded growth inhibition, one value per entry.

Solved cases (5 shown):
CS(=O)(=O)O.[Ag] ... 99% (active)
CC1=NN(C(=O)c2ccccc2O)C(=O)/C1=C/c1ccco1 ... 89% (active)
O=C(C#Cc1ccccc1)Nc1ccccc1 ... 72% (active)
CCC(/C=C/c1ccccc1)=N\Nc1ccc(Cl)cc1 ... 2% (inactive)
OC(CC(O)(C(F)(F)F)C(F)(F)F)c1ccc(C(O)CC(O)(C(F)(F)F)C(F)(F)F)cc1 (stereo not given) ... 99% (active)

input: Given the compound Nc1ccc2c(c1)C(=O)c1c(F)cccc1-2 , what is its reported growth inhibition?
output: 16% (inactive)

input: Follow-up item: C=COC(=O)N[C@H]1CCc2cc(OC)c(OC)c(OC)c2-c2ccc(SC)c(=O)cc21
output: 12% (inactive)
